# TARGET_OR_SYSTEM: human TLR9 (Homo sapiens)
# Construct: host or cells: HEK-Blue cells
# Sequence (Q9NR96 26-1032): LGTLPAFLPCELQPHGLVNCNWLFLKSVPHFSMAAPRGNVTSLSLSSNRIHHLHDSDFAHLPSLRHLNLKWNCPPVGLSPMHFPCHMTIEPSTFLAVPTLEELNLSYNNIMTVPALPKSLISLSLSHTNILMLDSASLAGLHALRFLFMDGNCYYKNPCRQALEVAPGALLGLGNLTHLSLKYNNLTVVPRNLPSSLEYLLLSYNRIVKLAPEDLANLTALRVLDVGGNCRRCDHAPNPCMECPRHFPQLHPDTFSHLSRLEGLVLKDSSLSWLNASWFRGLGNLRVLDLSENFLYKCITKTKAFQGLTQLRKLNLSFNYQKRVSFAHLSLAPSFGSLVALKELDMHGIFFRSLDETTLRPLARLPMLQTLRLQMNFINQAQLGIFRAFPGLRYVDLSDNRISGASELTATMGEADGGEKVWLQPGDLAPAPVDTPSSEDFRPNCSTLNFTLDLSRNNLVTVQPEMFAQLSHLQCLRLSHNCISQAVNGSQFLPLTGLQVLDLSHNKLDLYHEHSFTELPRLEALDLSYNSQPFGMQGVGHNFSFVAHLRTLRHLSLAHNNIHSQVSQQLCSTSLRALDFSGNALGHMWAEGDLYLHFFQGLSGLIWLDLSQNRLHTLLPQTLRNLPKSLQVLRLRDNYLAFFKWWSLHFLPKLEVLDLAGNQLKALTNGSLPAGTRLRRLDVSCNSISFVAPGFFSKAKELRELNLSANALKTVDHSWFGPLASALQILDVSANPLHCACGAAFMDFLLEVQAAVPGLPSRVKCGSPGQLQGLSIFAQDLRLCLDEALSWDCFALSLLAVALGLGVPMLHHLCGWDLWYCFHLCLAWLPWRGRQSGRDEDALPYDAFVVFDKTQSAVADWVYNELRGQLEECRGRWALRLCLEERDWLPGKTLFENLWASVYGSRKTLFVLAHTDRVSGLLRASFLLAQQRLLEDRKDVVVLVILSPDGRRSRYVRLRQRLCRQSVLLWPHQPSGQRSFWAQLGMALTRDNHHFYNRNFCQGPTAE
# METHOD_DESCRIPTION: TLR9 inhibition reporter assay (HEK-Blue, SEAP)
# Format: cell-based
# TEST_CONTEXT: HEK-Blue cells overexpressing human TLR9, ligand ODN2006 200 nM, 22 hour incubation
READOUT_NAME: IC50 (nM)

A selection of reference data follows.
{"COMPOUND": "COc1ccc(-c2nc3c(C)cc(C4CCN([C@H]5C[C@@H]6CN(C7CCOCC7)C[C@@H]6C5)CC4)nc3n2C)cc1OC", "READING_UNIT": "nM", "IC50": 220}
{"COMPOUND": "CC(C)N1CCC(N2CCC(c3ccc4nc(-c5ccc(S(C)(=O)=O)cc5)n(C)c4n3)CC2)CC1", "READING_UNIT": "nM", "IC50": 71}
{"COMPOUND": "Cc1cc(C2CCN(C3CC4CCC(C3)N4C3CCOCC3)CC2)nc2c1nc(-c1ccc(S(C)(=O)=O)cc1)n2C (single isomer, unassigned) [Example 35]", "READING_UNIT": "nM", "IC50": 340}
{"COMPOUND": "CC(C)CN1CCC(N2CCC(c3cnc4nc(-c5ccc(S(C)(=O)=O)cc5)n(C)c4c3)CC2)CC1", "READING_UNIT": "nM", "IC50": 160}
{"COMPOUND": "Cc1cc(C2CCN(C3CC4CCC(C3)N4CC3CC3)CC2)nc2c1nc(-c1ccc(S(C)(=O)=O)cc1)n2C (single isomer, unassigned) [Example 31]", "READING_UNIT": "nM", "IC50": 240}
{"COMPOUND": "CC(C)N1CCN(c2ccc(-c3ccc4nc(-c5ccc(S(C)(=O)=O)cc5)n(C)c4n3)cc2)CC1", "READING_UNIT": "nM", "IC50": 930}
{"COMPOUND": "Cc1cc(C2CCN(C3CCN(CC(C)C)CC3)CC2)nc2c1nc(-c1ccc(S(C)(=O)=O)cc1)n2C", "READING_UNIT": "nM", "IC50": 24}
{"COMPOUND": "Cc1cc(C2CCN(C3CCN(C(C)C)CC3)CC2)nc2c1nc(-c1ccc(S(C)(=O)=O)cc1)n2C", "READING_UNIT": "nM", "IC50": 25}

A = CC(C)N1CCN(c2ccc(-c3cnc4nc(-c5ccc(S(C)(=O)=O)cc5)n(C)c4c3)cc2)CC1
B = COc1ccc(-c2nc3ncc(C4CCN(C5CCN(CC(C)C)CC5)CC4)cc3[nH]2)cc1OC
C = COc1cc(-c2nc3c(C)cc(-c4ccc(N5CCN(C(C)C)CC5)cc4)nc3n2C)cn2ncnc12
D = COc1ccc(-c2nc3c(C)cc(-c4ccc(N5CC6(C5)CN(C(C)C)C6)cc4)nc3n2C)cc1OC
E = CC(C)N1CC2(CCN(c3ccc(-c4ccc5nc(-c6ccc(S(C)(=O)=O)cc6)n(C)c5n4)cc3)CC2)C1
INPUT: Ascending sort, IC50. Labels, requested order.
OUTPUT: B, C, A, E, D
(B: 74 nM, C: 140 nM, A: 350 nM, E: 560 nM, D: 860 nM)

a = Cc1cc(-c2ccc(CN3CC4(C3)CN(C(C)C)C4)cc2)nc2c1nc(-c1ccc(S(C)(=O)=O)cc1)n2C1CC1
b = CC(C)N1CCN(c2ccc(-c3cnc4nc(-c5ccc(S(C)(=O)=O)cc5)n(C5CC5)c4c3)cc2)CC1
c = Cc1cc(-c2ccc(CN3CC4(C3)CN(C3CCC3)C4)cc2)nc2c1nc(-c1ccc(S(C)(=O)=O)cc1)n2C1CC1
INPUT: Ascending sort, IC50. Labels, requested order.
OUTPUT: c, a, b
